Origin of the recorded values: patent US8343934B2

Target: ATX (Homo sapiens)
Construct: conditioned serum-free medium (CCM) from MDA-MB-435 cells as the source of ATX; endogenous in cells; host or cells: MDA-MB-435 cells (about 10x concentrated conditioned serum-free medium)
Test: ATX inhibition assay (FS-3 substrate)
Format: biochemical
Conditions: Table 5; FS-3 substrate
observation type: IC50 (µM)

{"compound": "Nc1ccc2cc(S(=O)(=O)O)c(/N=N/c3ccc(-c4ccc(/N=N/c5c(S(=O)(=O)O)cc6cc(S(=O)(=O)O)cc(N)c6c5O)cc4)cc3)c(O)c2c1", "unit info": "µM", "IC50": 1.26}

1. O=C1C(Cl)=C(Nc2ccc(C(=O)Nc3ccc4cc(S(=O)(=O)O)cc(S(=O)(=O)O)c4c3)cc2)C(=O)C(Cl)=C1Nc1ccc(C(=O)Nc2ccc3cc(S(=O)(=O)O)cc(S(=O)(=O)O)c3c2)cc1
2. Cc1cc(C(O)(c2ccc(Nc3ccccc3)cc2)c2ccc(Nc3ccc(S(=O)(=O)O)cc3)cc2)ccc1N (stereo not drawn)
Would you mind telling me which has the lower recorded IC50 between 1 and 2 ? Reply briefly: the label of your chosen item.
1
(1: 0.805 µM, 2: 1.27 µM)

====

Molecular target: ATX (Homo sapiens)
Construct: conditioned serum-free medium (CCM) from MDA-MB-435 cells as the source of ATX; endogenous in cells; host or cells: MDA-MB-435 cells (about 10x concentrated conditioned serum-free medium)
Test: ATX inhibition assay (FS-3 substrate)
Format: biochemical
Conditions: preliminary screen; FS-3 hydrolysis at one hour, normalized to vehicle control, mean±S.D.; same values given at 10 μM in Table 5
observation type: % Response (%)

Solved entries:
{"compound": "O=C(Nc1ccc2cc(S(=O)(=O)O)cc(S(=O)(=O)O)c2c1)Nc1ccc2cc(S(=O)(=O)O)cc(S(=O)(=O)O)c2c1.[Na+]", "observation type": "% Response", "readout number": 100}
{"compound": "Nc1ccc(N=Nc2ccc(-c3ccc(N=Nc4c(S(=O)(=O)O)cc5cc(S(=O)(=O)O)c(N=Nc6cccc([N+](=O)[O-])c6)c(N)c5c4O)cc3)cc2)c(N)c1.[Na+]", "observation type": "% Response", "readout number": 37}

I. Nc1ccc(C(=O)Nc2cccc(C(=O)Nc3ccc4c(O)c(N=Nc5ccc(N=Nc6ccc(S(=O)(=O)[O-])cc6)cc5)c(S(=O)(=O)[O-])cc4c3)c2)cc1.[Na+].[Na+]
II. Nc1c(N=Nc2ccc(S(=O)(=O)O)cc2)cc(S(=O)(=O)O)c2ccc(N=Nc3ccc([N+](=O)[O-])cc3)c(O)c12.[Na+]
III. Nc1ccc2cc(S(=O)(=O)[O-])c(N=Nc3ccc(-c4ccc(N=Nc5c(S(=O)(=O)[O-])cc6cc(S(=O)(=O)[O-])cc(N)c6c5O)cc4)cc3)c(O)c2c1.[Na+].[Na+].[Na+]
IV. Cc1cc(N)ccc1N=Nc1ccc(-c2ccc(N=Nc3c(S(=O)(=O)O)cc4cc(S(=O)(=O)O)c(N=Nc5ccc([N+](=O)[O-])cc5)c(N)c4c3O)cc2)cc1.[Na+]
Hey, can you sort those compounds up there by % Response, smallest first? Please respond with the labels ordered as the question requires.
III, IV, I, II

A. COc1ccc(/C=N/N=C(N)/C(N)=N/N=C/c2ccc(OC)c(S(=O)(=O)O)c2)cc1S(=O)(=O)O.[Na+]
B. CN(C)C1C(=O)C(C(=O)NCNc2cccc(C(=O)O)c2C(=O)O)=C(O)C2(O)C(=O)C3=C(O)c4c(O)cccc4[C@](C)(O)[C@@H]3C[C@H]12 (some centres unmarked)
C. Nc1c(N=Nc2ccc([N+](=O)[O-])cc2)c(S(=O)(=O)O)cc2cc(S(=O)(=O)O)c(N=Nc3ccc(-c4ccc(O)cc4)cc3)c(O)c12.[Na+]
Please list these compounds in decreasing order of % Response. Please respond with the labels ordered as the question requires.
A, C, B
(A: 92%, C: 56%, B: 32%)

a. Nc1cccc(N=Nc2c(S(=O)(=O)[O-])cc3cc(NC(=O)Nc4ccc5c(O)c(N=Nc6cccc(N)c6)c(S(=O)(=O)[O-])cc5c4)ccc3c2O)c1.[Na+].[Na+]
b. Cc1c(N)cc(S(=O)(=O)O)cc1NC(=O)c1cccc([N+](=O)[O-])c1
// max by % Response over [ a , b ] Reply briefly: the label of your chosen item.
b
